molecular target: acid ceramidase (hACR) (Homo sapiens, UniProt Q13510); construct: expressed in transfected cells; cell lysate used; experiment: Acid ceramidase inhibition, biochemical fluorescent assay with cell lysates overexpressing acid ceramidase, substrate Rbm14-12; details: cell lysates overexpressing acid ceramidase; 1 hr preincubation at RT; pH 4.5; substrate Rbm14-12 6.3 μM; read-out: hACR IC50
pIC50: −log10 of the molar value.
measurementKind: pIC50

Known pIC50 results, listed for orientation:
>>> reported("CC1C(N2CCCCC2)CCCN1C(=O)NCCCCc1ccccc1 (stereo not shown)")
"6.00 to 6.70"
>>> reported("CCCCCCCNC(=O)N1C(c2ccccc2)COCC1(C)C (stereo not shown)")
"> 6.70"
>>> reported("CN1CCN(c2ccc3c(c2)CCC(C)(C)N3C(=O)NCCc2ccccc2)CC1")
"6.00 to 6.70"
>>> reported("CC1(C)CC(F)=CCN1C(=O)NCCCc1ccccc1")
"< 6.00"
>>> reported("CN(c1ccccc1)C1CCN(C(=O)NCCCCc2ccccc2)C(C)(C)C1.Cl (stereo not shown) [Example 88, hydrochloride]")
"< 6.00"
>>> reported("CC1(C)CC(c2ccccn2)CCN1C(=O)NCCCCc1ccccc1 (stereo not shown)")
"< 6.00"
>>> reported("CC1(C)CCC(N2CCCCC2)CN1C(=O)NCCCCc1ccccc1 (stereo not shown)")
"> 6.70"
>>> reported("CC1(C)CC(c2ccccc2)CCN1C(=O)NC1CCOCC1 (stereo not shown)")
"< 6.00"

Query: Answer with the recorded pIC50 for the compound listed here: C[C@@H]1CN(C(=O)NCCCCc2ccccc2)[C@@H](C)CN1C1CC1
Reply: 6.00 to 6.70

Query: Report measured pIC50; entry is CN1CC(c2cccc3c2CCC(C)(C)N3C(=O)NCCc2ccccc2)C1
Reply: 6.00 to 6.70

Query: Find the measured pIC50 of COc1ccc(C2COCC(C)(C)N2C(=O)NCCF)cc1 (stereo not shown) and report it.
Reply: 6.00 to 6.70

Query: Given CCCCCNC(=O)N1C(c2ccc(F)cc2)COCC1(C)C (single isomer, unassigned) [Example 138] , respond with its pIC50.
Reply: > 6.70

* * *

experiment: Compound solubility in water; type: physicochemical
measurementKind: solubility (µM)

As a guide, the following entries are already answered.
>>> reported("O=C(NCCCc1ccc(F)cc1F)N1CCCCC12CCCC2")
1.1
>>> reported("COc1ccc(C2COCC(C)(C)N2C(=O)NCC2CCOCC2)cc1 (stereo not drawn)")
91.3
>>> reported("CC1(C)CCc2ccc(C3COC3)cc2N1C(=O)NCCc1ccccc1")
5
>>> reported("CC1(C)CC(F)=CCN1C(=O)NCCCC1(C(F)(F)F)CC1")
4.3
>>> reported("CCCCNC(=O)N1c2cccc(N3CCN(C)CC3)c2CCC1(C)C")
22.7
>>> reported("Cn1ccnc1-c1cccc2c1CCC(C)(C)N2C(=O)NCCc1ccccc1")
33.6

1 = COc1ccc(C2COCC(C)(C)N2C(=O)NCC2CC2)cc1 (stereo not drawn)
2 = CCCCNC(=O)N1c2cccc(C3CCN(C)CC3)c2CCC1(C)C
Query: Of the two listed items, which has the higher solubility? First: 1 Second: 2 // return label of chosen record
Reply: 1
(1: 97.8 µM, 2: 40.6 µM)

* * *

assay: Compound solubility in water; format: physicochemical
measurementKind: solubility (µM)

>>> reported("CN1CC(c2cccc3c2CCC(C)(C)N3C(=O)NCc2ccccc2)C1")
38.5
>>> reported("CC1(C)CC(c2ccccc2)CCN1C(=O)NCCc1ccccc1 (stereo not shown)")
0.4
>>> reported("CN1CCC(c2ccc3c(c2)N(C(=O)NCCc2ccccc2)C(C)(C)CC3)CC1")
33.2
>>> reported("CN1CC(c2cccc3c2CCC(C)(C)N3C(=O)NCCc2ccccc2)C1")
35.3
>>> reported("CC1(C)CC(F)=CCN1C(=O)NCCCc1ccccc1")
15
>>> reported("CCOCCNC(=O)N1CCC(c2ccccc2)CC1(C)C (stereo not shown)")
64.3
>>> reported("CN1CCC(c2ccc3c(c2)CC(C)(C)N(C(=O)NCCc2ccccc2)C3)CC1")
34.2
>>> reported("CC(C)CCNC(=O)N1CCN(c2ccccc2)CC1(C)C")
7
>>> reported("CC1(C)CCCN1C(=O)NCCc1ccccc1")
25.6
>>> reported("CC(=O)N1CC(c2ccc3c(c2)N(C(=O)NCCc2ccccc2)C(C)(C)CC3)C1")
15.6

a = CC1(C)CC(N2CCC(F)(F)CC2)CCN1C(=O)NCCCCc1ccccc1 (stereo not shown)
b = CN1CC(C)(C)N(C(=O)NCCc2ccccc2)c2ccccc21
Query: Returns: the argument ( a or b ) having the larger solubility. The response must carry the label of the picked entry.
Reply: a

A = CN1CCN(C(=O)NCCc2ccccc2)C(C)(C)C1
B = CN1CCN(c2ccc3c(c2)CCC(C)(C)N3C(=O)NCCc2ccccc2)CC1
C = CN1CC(c2ccccc2)N(C(=O)NCCCCc2ccccc2)C(C)(C)C1 (stereo not shown)
D = CC(C)CCNC(=O)N1CCC(Oc2ccccc2)CC1(C)C (stereo not shown)
Query: Could you please sort these 4 entries by solubility from high to low? Answer by naming the labels in the order asked.
Reply: C, B, A, D

* * *

Target: acid ceramidase (hACR) (Homo sapiens, UniProt Q13510)
Construct: expressed in transfected cells; cell lysate used
Sequence (Q13510 143-395 limits assumed): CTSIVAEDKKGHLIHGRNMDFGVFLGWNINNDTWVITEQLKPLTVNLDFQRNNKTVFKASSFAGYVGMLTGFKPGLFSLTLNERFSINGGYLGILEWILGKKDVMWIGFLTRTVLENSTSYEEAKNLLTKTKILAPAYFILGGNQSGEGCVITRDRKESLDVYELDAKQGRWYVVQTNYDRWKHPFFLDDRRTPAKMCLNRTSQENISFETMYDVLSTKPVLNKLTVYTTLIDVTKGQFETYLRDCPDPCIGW
Sequence (Q13510 22-142 limits assumed): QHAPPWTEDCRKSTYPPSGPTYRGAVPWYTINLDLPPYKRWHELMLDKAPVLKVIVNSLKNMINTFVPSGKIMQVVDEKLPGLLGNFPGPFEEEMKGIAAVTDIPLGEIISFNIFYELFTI
Assay: Acid ceramidase inhibition, biochemical fluorescent assay with cell lysates overexpressing acid ceramidase, substrate Rbm14-12
Settings: cell lysates overexpressing acid ceramidase; 1 hr preincubation at RT; pH 4.5; substrate Rbm14-12 6.3 μM; read-out: hACR IC50
Description: The ability of exemplary compounds to inhibit acid ceramidase was measured. Cell lysates overexpressing acid ceramidase were used as the enzyme source for compound potency determination in a biochemical fluorescent assay. […] Finally the plate was read with SpectraMax i3 plate reader (Molecular Devices) at ex360 nm and em446 nm. […]
measurementKind: IC50

Example entries and their recorded answers appear below.
>>> reported("CCCCCNC(=O)N1CCN(C2CC2)CC1(C)C")
"< 200 nM"
>>> reported("CC1(C)CC(N2CCCCC2)CCN1C(=O)NCCCCc1ccccc1 (centres unmarked)")
"< 200 nM"
>>> reported("CN1CCN(C2CCN(C(=O)NCCc3ccccc3)C(C)(C)C2)CC1 (centres unmarked)")
"> 1000 nM"
>>> reported("CCCCCNC(=O)N1CCC(N2CCCCC2)C[C@@H]1C (mixture of isomers)")
"200 to 1000 nM"
>>> reported("CC1(C)Cc2ccccc2N1C(=O)NCCc1ccccc1")
"> 1000 nM"
>>> reported("CCCCCNC(=O)N1C(c2ccc(F)cc2)COCC1(C)C (single isomer, unassigned) [Example 139]")
"< 200 nM"
>>> reported("CCCCCNC(=O)N1C(c2ccc(F)cc2)COCC1(C)C (centres unmarked) [Example 137]")
"< 200 nM"
>>> reported("CC1(C)Cc2ccccc2CN1C(=O)NCCc1ccccc1")
"200 to 1000 nM"
>>> reported("CC1(C)CC(N2CCC(c3ccccc3)CC2)CCN1C(=O)NCCCCc1ccccc1 (centres unmarked)")
"< 200 nM"
>>> reported("CC1(C)C(=O)N(c2ccccc2)CCN1C(=O)NCCOCc1ccccc1")
"> 1000 nM"

Query: Return the recorded IC50 value; entry: CN1CC(C)(C)N(C(=O)NCCCCc2ccccc2)CC1c1ccccc1 (centres unmarked)
Reply: < 200 nM

Query: Hello, please tell me recorded IC50 for this one: CN1CCC(c2ccc3c(c2)N(C(=O)NCCc2ccccc2)C(C)(C)CC3)CC1
Reply: 200 to 1000 nM

Query: Item CN(C(=O)NCCCc1ccccc1)C12CCC(CC1)CC2 : provide IC50
Reply: < 200 nM

Query: Name the recorded IC50 of the compound listed here: CC1(C)CCc2cccnc2N1C(=O)NCCc1ccccc1
Reply: > 1000 nM

Query: Quote IC50 reported for CC1(C)CN(C(=O)NCCCCc2ccccc2)C(C)(C)CC1=O please.
Reply: > 1000 nM
